# System: HCV 1b_Huh-Luc/Neo-ET cell line persistently expressing a bicistronic genotype 1b replicon in Huh 7 cells
# ASSAY_TEXT: HCV replicon assay (luciferase readout, 72 h)
# Type: cell-based, HCV genotype 1b
# CONDITIONS: Hepatitis C virus, Huh-7, 72 h, read-out: Inhibition of HCV genotype 1b
EXPERIMENTAL_READOUT: EC50

1. CC(C)(C)OC(=O)N1CCCC1c1ncc(-c2ccc(C#Cc3ccc4nc([C@@H]5CCCN5C(=O)OC(C)(C)C)[nH]c4c3)cc2)[nH]1 (some centres unmarked) ... 1 to 9.9 nM
2. COC(=O)N[C@@H](C(=O)N[C@H](c1ncc(-c2ccc(C#Cc3ccc(-c4cnc([C@@H]5CCCN5C(=O)[C@H](NC(=O)OC)c5ccccc5)[nH]4)cc3)cc2)[nH]1)C(C)C)c1ccccc1 ... < 1 nM
3. CN(C)[C@@H](C(=O)N1CCC[C@H]1c1ncc(C#Cc2ccc(C#Cc3cnc([C@@H]4CCCN4C(=O)[C@@H](c4ccccc4)N(C)C)[nH]3)cc2)[nH]1)c1ccccc1 ... < 1 nM
4. COC(=O)N[C@H](C(=O)N1CCC[C@H]1c1ncc(-c2ccc(C#Cc3ccc(-c4cnc([C@@H]5CCCN5C(=O)[C@@H](C(C)C)N(C)C)[nH]4)cc3)cc2)[nH]1)C(C)C ... 1 to 9.9 nM

Would you kindly look at the next entry?
Query string: I would be grateful if you could share the reported EC50 for COC(=O)N[C@@H](C(=O)N1CCC[C@H]1c1ncc(-c2ccc(C#Cc3ccc(-c4cnc([C@@H]5CCCN5C(=O)[C@H](NC(=O)N5CCC(O)CC5)c5ccccc5)[nH]4)cc3)cc2)[nH]1)c1ccccc1 .
Result string: < 1 nM
